System: SK-MEL-5 melanoma
Experiment: NCI-60 one-dose screen, 48 h (100 = growth as untreated, 0 = no growth, -100 = all killed)
Settings: 10 µM unless noted
The panel holds about 83,000 compounds, 20% with a hit somewhere; the sample as a whole holds those more often.
attributeMeasured: growth (%)
Just the number in %, nothing appended.

These recorded examples may help you get a feel for the data.
O=c1oc2ccccc2cc1-c1nn(-c2ccccc2)cc1/C=N/Nc1nc(-c2ccccc2)c(N=Nc2ccccc2)s1	79.7
COc1ccc(C(=O)/C=C/c2ccc(Cl)cc2)cc1S(N)(=O)=O	85.7
COC(CCP(=O)(c1ccccc1)c1ccccc1)(C(=O)c1ccccc1)c1ccccc1 (configuration not stated)	34.3
c1ccc(-c2cn3nc(-c4c[nH]c5ccccc45)sc3n2)cc1	74.2

[ask] Specify growth for CC(Cc1cccc2ccccc12)C(N)=O (configuration not stated) and stop.
[reply] 101

[ask] Consider the compound C=C(c1ccc(OC)c(/C=C/C(=O)c2cc(OC)c(OC)c(OC)c2)c1)c1cc(OC)c(OC)c(OC)c1 and give its recorded growth.
[reply] -69.3

[ask] Quote growth reported for CCN1C(=O)N(CC)C2C1NN=c1s/c(=C\c3ccc([N+](=O)[O-])cc3)c(=O)n12 (configuration not stated) please.
[reply] 27.6

[ask] Tell me measured growth for O=C(CSc1nnc(-c2ccc(Cl)c(Cl)c2)n1-c1ccccc1)Nc1ccc(C(=O)/C=C/c2ccc(Cl)cc2)cc1 please.
[reply] 93.1

[ask] Tell me growth reported for O=[N+]([O-])c1ccc(N/N=C\c2cc(Cl)ccc2O)nc1
[reply] 4.09

[ask] Answer with the recorded growth of Cc1c(Cl)cccc1NC(=O)c1sc2nc3c(cc2c1N)CCCC3 only.
[reply] 31

[ask] Report growth for C(=N\Nc1nnc2n1N=C(c1ccccc1)CS2)/c1ccc(OCc2ccccc2)cc1
[reply] 82.9

[ask] Give growth for Oc1cccc(-c2nc(-c3n[nH]c(=S)n3-c3ccccc3)cc3c2[nH]c2ccccc23)c1
[reply] 9.76

----------
Test system: NCI-H460 lung
Experiment: NCI-60 one-dose screen, 48 h (100 = growth as untreated, 0 = no growth, -100 = all killed)
Details: 10 µM unless noted
The panel holds about 83,000 compounds, 20% with a hit somewhere; the sample as a whole holds those more often.
attributeMeasured: growth (%)
Number only, in %; omit the unit.

In the examples that follow, each entry is paired with its recorded growth.
CS(=O)(=O)c1cccc(Nc2ncc3cc(-c4ccccc4Cl)ccc3n2)c1	5.47
CCN(CC)c1ccc(/C=N/NC(=O)c2ccccc2Nc2ccnc(C(F)(F)F)c2)c(O)c1	4.43
COC(=O)c1c(C)nc(C)c2c1C(=O)C(Br)=C(NCCN1CCOCC1)C2=O	88.6
Cc1cc(C)n(C(=O)CSc2nc3sc4c(c3c(=O)n2-c2ccccc2)CCCCC4)n1	103
CCOc1ccccc1NC(=O)CCC(=O)OC	108

[ask] Provide growth value for the following molecule: N=C(N)c1ccc(-c2ccc(-c3ccccc3)s2)nc1
[reply] 23.1

[ask] Output measured growth for this item: O=C(CSc1nnc(-c2ccc(Cl)c(Cl)c2)n1-c1ccccc1)Nc1ccc(C(=O)/C=C/c2ccc(Cl)cc2)cc1
[reply] 99.5

[ask] Please indicate growth recorded for Cc1ccc(S(=O)(=O)c2nc(-c3ccccc3)oc2S(C)=O)cc1 (stereo not drawn)
[reply] 73.1

----------
System: UACC-62 melanoma
Experiment: NCI-60 one-dose screen, 48 h (100 = growth as untreated, 0 = no growth, -100 = all killed)
Conditions: 10 µM unless noted
This is part of a sample that, as a whole, favours compounds with a hit. Of some 83,000 tested, about 20% had one in any assay.
Measured growth accompanies every entry in the list below.
Quick note: give the figure in %, leave out the unit.

// known answers, use as guide
CCn1c2ccccc2c2cc(C(O)c3cccc4ncccc34)ccc21 (stereo unspecified)	16
C#CCOc1ccc(C2=NN(C)C3N=C(Cl)c4ncn(C)c4N23)cc1OCC#C (stereo unspecified)	84.3
CN(C)c1ccc(/C=N/NC(=O)CSc2nc3sc4c(c3c(=O)n2-c2ccccc2)CCCCC4)cc1	8.03

[ask] Output growth of O=C1Nc2ccccc2/C1=C/c1cccn1CCCCCCn1c2ccccc2c(=O)c2ccccc21
[reply] 50.3

[ask] Respond only with growth recorded for Cn1cc(-c2nc(-c3c[nH]c4c(Cl)nccc34)cs2)c2ccccc21
[reply] 97.5

[ask] Give reported growth value for COCCNC(=O)Cc1cc(-c2ccc(Cl)cc2)n(-c2ccccc2)c1C
[reply] 59.4

[ask] Report growth, nothing else, for this molecule: O=CN1N=C(c2cccc(Nc3ccncc3)c2)CC1c1ccc2c(c1)OCO2 (stereo unspecified)
[reply] 99.6

[ask] Consider the molecule Cc1c2ccncc2c(C)c2c1c1ccccc1n2CCCCCC(=O)O and give its recorded growth.
[reply] 85.2

[ask] Give me measured growth, please, for this molecule: C1=C2CCCC3=Cc4ccccc4OC23Oc2ccccc21
[reply] 14.5

[ask] Return growth for the following molecule: CN1CCN(CC(=O)N(C)c2ccc(N=C(c3ccccc3)c3c(O)[nH]c4ccc([N+](=O)[O-])cc34)cc2)CC1
[reply] 102

[ask] Please give measured growth of the following entry: Brc1ccc(-c2nn(-c3ccccc3)cc2-c2nn[nH]n2)s1
[reply] 85.1

----------
Tested on: NCI-H226 lung
Assay: NCI-60 one-dose screen, 48 h (100 = growth as untreated, 0 = no growth, -100 = all killed)
Settings: 10 µM unless noted
This is part of a sample that, as a whole, favours compounds with a hit. Of some 83,000 tested, about 20% had one in any assay. Calls of active or inactive are those of the source. Rule for the calls: active = growth percent below 10; inactive = the rest.
attributeMeasured: growth

As a guide, the following entries are already answered.
COc1ccc(NC(=O)c2ccc(NC3=C(c4ccc(Cl)cc4)C(=O)NC3=O)cc2)cc1	84.4% (inactive)
O=C1C2C(c3cccs3)C=C(c3ccc(Cl)cc3)N2C(=S)N1c1ccccc1 (configuration not stated)	86.8% (inactive)
COc1ccc(NC(=O)c2ccc(Cl)cc2Cl)cc1	105% (inactive)
O=C(O)c1nn(-c2ccc(Cl)cc2)nc1N1CCCC1	90.8% (inactive)

[ask] Consider the compound Cc1[nH]c(C(=O)Nc2ccc(C(N)=O)cc2OC(C)C)c(Cl)c1Cl . State its measured growth.
[reply] 107% (inactive)

[ask] Read off the recorded growth for [2H]C([2H])([2H])Oc1c(F)cccc1/C=C/C(=O)/C=C(O)/C=C/c1cccc(F)c1OC([2H])([2H])[2H]
[reply] 108% (inactive)

[ask] Name the recorded growth of the compound listed here: CCCN1C(=O)N(CCC)C2C1NC(=S)N2/N=C/C=C/c1ccccc1OC (configuration not stated)
[reply] 55.4% (inactive)

[ask] Give a short answer stating reported growth for CCOc1ccccc1NC(=O)CCC(=O)OC .
[reply] 101% (inactive)

[ask] Output measured growth for this item: CCOc1ccc(N2C(=O)CCSC2=S)cc1
[reply] 100% (inactive)

[ask] Identify measured growth corresponding to Cc1[nH]c(C(=O)Nc2ccccc2OC2CCNC2)c(Cl)c1Cl (configuration not stated)
[reply] 80.6% (inactive)

[ask] State, in one line, measured growth of Nc1cc(-c2ccc(Cl)cc2)nn1-c1nc(-c2ccc(Br)cc2)cs1
[reply] 96.3% (inactive)

[ask] Identify measured growth corresponding to Cc1cc2nc(C(Cl)Cl)nc(-c3ccccc3)n2n1
[reply] 90.7% (inactive)

----------
Test system: RPMI-8226 leukemia
Assay: NCI-60 one-dose screen, 48 h
Conditions: 10 µM unless noted
This is part of a sample that, as a whole, favours compounds with a hit. Of some 83,000 tested, about 20% had one in any assay. Activity calls are given as the source filed them. Rule for the calls: active = growth percent below 10; inactive = the rest.
I would appreciate it if you answered using one of these outcomes: class 1 (active), class 0 (inactive)

CC(C)(C)n1cc(-c2ccnc(NCCNS(=O)(=O)c3ccc(Br)cc3)c2)c(-c2cccc(O)c2)n1	class 1
COc1cccc(-c2nn(-c3ccccc3)cc2-c2ccnc(-c3cccnc3)c2)c1	class 0
C(CCCSC1=NCCN1)CCSC1=NCCN1	class 0

[ask] Hello, I am checking results. What call was entered for COC1=C(OC)C(=O)C(CCCCCCCCCCO)=C(C)C1=O ?
[reply] class 0

----------
Tested on: HT29 colon
Assay: NCI-60 one-dose screen, 48 h
Settings: 10 µM unless noted
Compounds without any hit were thinned out: in the full panel of roughly 83,000, 20% have a hit. The source made the active and inactive calls. How the source made its calls: active means growth percent below 10; inactive means the rest.
Allowed answers: TRUE (active), FALSE (inactive)

Worked examples follow.
O=C(NC1CCCCCC1)c1ccc2c(=O)n3c(nc2c1)CCCCC3	FALSE
O=C(Nc1ncc(Cc2ccccc2Cl)s1)c1ccc2c(c1)OCCO2	TRUE

[ask] Short answer needed: outcome of this test for O=c1ccc2nc(-c3ccccc3)nn(-c3ccccn3)c-2c1 ?
[reply] TRUE

[ask] Lab log entry: O=C1CC2C=CCN2C=C1NC(=O)c1ccccc1 (centres undefined) — outcome as called in the assay?
[reply] FALSE

[ask] Just curious, what result did COc1cc(/C=C/c2cc(/C=C/c3ccc(O)c(OC)c3)n(C(=O)Nc3ccc(C)cc3C)n2)ccc1O get here?
[reply] TRUE
